The reported numbers originate from paper PMC8041284.

- Experimental System: UniProtKB Q06187
- Experiment: biochemical
- Test Settings: read-out: BTK inhibition (%), 0.75 uM BTK, […] probe 3l, 15 min preincubation
Where inhibition at 10 µM equals or exceeds -10%, the correct label is true; where it does not, the label is false.

[[record]]
compound = "COc1ccc(C2=N[C@H](c3ccc(Cl)cc3)[C@H](c3ccc(Cl)cc3)N2C(=O)N2CCNC(=O)C2)c(OC(C)C)c1"
assigned_label = "false"

[[record]]
compound = "CCCCCCCCCCCC[N+](C)(C)CCOc1ccccc1"
assigned_label = "false"

[[record]]
compound = "CNCC(O)c1ccc(O)cc1 (centres unmarked)"
assigned_label = "true"

[[record]]
compound = "O=CC1OC(=O)c2cc(O)c(O)c(O)c2-c2c(cc(O)c(O)c2O)C(=O)OC1C1OC(=O)c2cc(O)c(O)c(O)c2-c2c(O)c(O)c3oc(=O)c4c(c(O)c(O)c5oc(=O)c2c3c54)-c2c(cc(O)c(O)c2O)C(=O)OCC1O (centres unmarked)"
assigned_label = "true"

[[record]]
compound = "CCCCCCCCCCCCCc1cccc(O)c1C(=O)O"
assigned_label = "true"

[[record]]
compound = "CN(CCNCc1cn(Cc2ccc(Cl)cc2)nn1)CCNc1ccnc2cc(Cl)ccc12"
assigned_label = "false"

[[record]]
compound = "CO[C@H]1/C=C/O[C@@]2(C)Oc3c(C)c(O)c4c(O)c(c(/C=N/N5CCN(C6CCCC6)CC5)c(O)c4c3C2=O)NC(=O)/C(C)=C\\C=C\\[C@H](C)[C@H](O)[C@@H](C)[C@@H](O)[C@@H](C)[C@H](OC(C)=O)[C@@H]1C"
assigned_label = "true"

[[record]]
compound = "CC(C(=O)O)c1ccc(CC2CCCC2=O)cc1 (centres unmarked)"
assigned_label = "true"

[[record]]
compound = "CC1=C(/C=C/C(C)=C/C=C/C(C)=C/C=C/C=C(C)/C=C/C=C(C)/C=C/C2=C(C)CCCC2(C)C)C(C)(C)CCC1"
assigned_label = "true"

[[record]]
compound = "Cc1cc(SCc2sc(-c3ccc(C(F)(F)F)c(F)c3)nc2C)ccc1OCC(=O)O"
assigned_label = "true"

[[record]]
compound = "CC[C@H]1OC(=O)[C@H](C)[C@@H](O[C@H]2C[C@@](C)(OC)[C@@H](O)[C@H](C)O2)[C@H](C)[C@@H](O[C@@H]2O[C@H](C)C[C@H](N(C)C)[C@H]2O)[C@](C)(O)C[C@@H](C)[C@@H]2N[C@@H](COCCOC)O[C@H]([C@H]2C)[C@]1(C)O"
assigned_label = "false"

[[record]]
compound = "C[C@@H](O)[C@H]1C(=O)N2C(C(=O)[O-])=C(SC3Cn4cnc[n+]4C3)[C@H](C)[C@H]12 (some centres unmarked)"
assigned_label = "false"

[[record]]
compound = "CC1(C)O[C@@H]2[C@@H](CO[C@@]3(COS(N)(=O)=O)OC(C)(C)O[C@@H]23)O1"
assigned_label = "false"

[[record]]
compound = "N#C/C(=C(\\O)c1ccc(Cl)cc1Cl)c1nc2ccccc2c(=O)[nH]1"
assigned_label = "true"


---

- Experimental System: BTK (Homo sapiens, UniProt Q06187)
- Sequence (Q06187 402-655 limits assumed): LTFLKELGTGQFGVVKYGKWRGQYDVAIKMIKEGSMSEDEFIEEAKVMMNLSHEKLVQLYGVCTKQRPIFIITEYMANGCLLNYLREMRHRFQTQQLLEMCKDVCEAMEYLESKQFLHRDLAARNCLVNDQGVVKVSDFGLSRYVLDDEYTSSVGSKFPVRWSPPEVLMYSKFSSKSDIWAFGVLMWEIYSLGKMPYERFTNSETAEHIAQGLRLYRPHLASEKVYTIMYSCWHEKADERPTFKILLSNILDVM
- Experiment: biochemical
- Test Settings: read-out: BTK inhibition (%), 0.75 uM BTK, […] probe 3l, 15 min preincubation
Quantity Kind: inhibition at 10 µM (%)

[[record]]
compound = "NCCOc1ccc(Cl)cc1C(=O)Nc1ccc([N+](=O)[O-])cc1Cl [PCM-0215860]"
quantity_kind = "inhibition at 10 µM"
readout_number = 7.7

[[record]]
compound = "OCCn1cc(-c2ccc3c(c2)CC/C3=N\\O)c(-c2ccncc2)n1 [PCM-0094883]"
quantity_kind = "inhibition at 10 µM"
readout_number = 16.6

[[record]]
compound = "CC(=O)O[C@@]12CO[C@@H]1C[C@H](O)[C@@]1(C)C(=O)[C@H](O)C3=C(C)[C@@H](O)C[C@@](O)([C@@H](OC(=O)c4ccccc4)[C@H]21)C3(C)C [PCM-0095302]"
quantity_kind = "inhibition at 10 µM"
readout_number = 9.3

[[record]]
compound = "O=c1oc2cc(O)ccc2c2ccc(O)cc12 [PCM-0216079]"
quantity_kind = "inhibition at 10 µM"
readout_number = 32.4

[[record]]
compound = "CCCC(=O)O[C@]1(C(=O)COC(C)=O)CC[C@H]2[C@@H]3C[C@H](F)C4=CC(=O)C=C[C@]4(C)[C@@]3(F)[C@@H](O)C[C@@]21C [PCM-0214767]"
quantity_kind = "inhibition at 10 µM"
readout_number = -3.4

[[record]]
compound = "CC(OC(=O)OC1CCCCC1)OC(=O)C1=C(CSc2nnnn2CCN(C)C)CS[C@@H]2[C@H](NC(=O)Cc3csc(N)n3)C(=O)N12 (stereo partly shown) [PCM-0216590]"
quantity_kind = "inhibition at 10 µM"
readout_number = 4.6

[[record]]
compound = "Cc1ccccc1CN1C2=NCCN2C(=O)C2=C1CCN(Cc1ccccc1)C2 [PCM-0095783]"
quantity_kind = "inhibition at 10 µM"
readout_number = -19.3

[[record]]
compound = "O=C1c2ccccc2C(=O)c2c1ccc(O)c2O [PCM-0095289]"
quantity_kind = "inhibition at 10 µM"
readout_number = 49.8

[[record]]
compound = "COc1ccc([C@@H]2CC(=O)c3c(O)cc(O[C@@H]4O[C@H](CO)[C@@H](O)[C@H](O)[C@H]4O[C@@H]4O[C@@H](C)[C@H](O)[C@@H](O)[C@H]4O)cc3O2)cc1O [PCM-0214691]"
quantity_kind = "inhibition at 10 µM"
readout_number = -10.3

[[record]]
compound = "N[C@@H](CO)C(=O)O [PCM-0216618]"
quantity_kind = "inhibition at 10 µM"
readout_number = 4.3

[[record]]
compound = "COC(=O)CCC(=O)CN [PCM-0216554]"
quantity_kind = "inhibition at 10 µM"
readout_number = -7.7

[[record]]
compound = "COc1ccc2cc1Oc1ccc(cc1)C[C@H]1c3cc(c(OC)cc3CCN1C)Oc1c(O)c(OC)cc3c1[C@@H](C2)N(C)CC3 [PCM-0214869]"
quantity_kind = "inhibition at 10 µM"
readout_number = 0.8

[[record]]
compound = "CNC(=O)c1ccc2cc([C@@]3(O)CCn4cncc43)ccc2c1 [PCM-0095080]"
quantity_kind = "inhibition at 10 µM"
readout_number = 3.1

[[record]]
compound = "COc1cccc(-c2cc(=O)c3ccccc3o2)c1N [PCM-0065604]"
quantity_kind = "inhibition at 10 µM"
readout_number = 4.8

[[record]]
compound = "CC1(C)OC(=O)C=C[C@]2(C)[C@H]3CC[C@@]4(C)[C@H](c5ccoc5)OC(=O)[C@H]5O[C@]54[C@]3(C)C(=O)C[C@@H]12 [PCM-0214973]"
quantity_kind = "inhibition at 10 µM"
readout_number = 11.7

[[record]]
compound = "COc1cc(S(=O)(=O)O)ccc1O [PCM-0215143]"
quantity_kind = "inhibition at 10 µM"
readout_number = -7

[[record]]
compound = "Cc1cnc(NC(=O)Nc2cc(Br)c(C)cc2OC[C@@H]2CNCCO2)cn1 [PCM-0095485]"
quantity_kind = "inhibition at 10 µM"
readout_number = 7.6

[[record]]
compound = "Cc1nc2cc(F)c(F)cc2n1-c1cncc(Nc2ccc(C(F)(F)F)cc2)n1 [PCM-0215953]"
quantity_kind = "inhibition at 10 µM"
readout_number = -6.2

[[record]]
compound = "CC(=O)N=c1sc(S(N)(=O)=O)nn1C [PCM-0095591]"
quantity_kind = "inhibition at 10 µM"
readout_number = -7.8

[[record]]
compound = "COC(=O)c1cc(OC)c(OC)c(OC)c1 [PCM-0215033]"
quantity_kind = "inhibition at 10 µM"
readout_number = -13.2

[[record]]
compound = "Cc1[nH]nc2ncc(C(=O)N3CCC[C@H]3c3ccc(Cl)cc3)cc12 [PCM-0215837]"
quantity_kind = "inhibition at 10 µM"
readout_number = 6.2

[[record]]
compound = "C[C@H]1C[C@@H]2[C@H]([C@@H](O)C[C@@]3(C)[C@H]2CC[C@]3(O)C(=O)CO)[C@@]2(C)C=CC(=O)C=C12 [PCM-0085838]"
quantity_kind = "inhibition at 10 µM"
readout_number = 9

[[record]]
compound = "O=[N+]([O-])c1ccc(S(=O)(=O)N2CCN(c3ccnc4cc(Cl)ccc34)CC2)c([N+](=O)[O-])c1 [PCM-0215531]"
quantity_kind = "inhibition at 10 µM"
readout_number = -12.4

[[record]]
compound = "Cc1ccc(C=NNC(=O)c2ccccc2Oc2ccccc2)o1 [PCM-0215777]"
quantity_kind = "inhibition at 10 µM"
readout_number = -16.2

[[record]]
compound = "NCCCNCCCCNCCCN [PCM-0065483]"
quantity_kind = "inhibition at 10 µM"
readout_number = -26.9

[[record]]
compound = "C=C[C@@](C)(/C=C/c1ccc(O)cc1)CCC=C(C)C [PCM-0094651]"
quantity_kind = "inhibition at 10 µM"
readout_number = 6.9

[[record]]
compound = "O=C(O)[C@H](O)[C@H](O)[C@@H](O)[C@H](O)[C@H](O)CO [PCM-0215251]"
quantity_kind = "inhibition at 10 µM"
readout_number = -28.9

[[record]]
compound = "OCCN1C[C@H](O)[C@@H](O)[C@H](O)[C@H]1CO [PCM-0086065]"
quantity_kind = "inhibition at 10 µM"
readout_number = -23.3

[[record]]
compound = "CC(C)S(=O)(=O)c1ccc2nccc(Nc3ccc4scnc4c3)c2c1 [PCM-0213432]"
quantity_kind = "inhibition at 10 µM"
readout_number = 26.2

[[record]]
compound = "Cc1nc(-c2ccc(OCC(C)C)c(C#N)c2)sc1C(=O)O [PCM-0090390]"
quantity_kind = "inhibition at 10 µM"
readout_number = -3.4

[[record]]
compound = "C=C[C@H]1CN2CC[C@H]1C[C@H]2[C@H](O)c1ccnc2ccccc12 [PCM-0094829]"
quantity_kind = "inhibition at 10 µM"
readout_number = -10.9

[[record]]
compound = "Cc1cc(C)nc(NC(=S)N2CCN(Cc3ccc(C(F)(F)F)cc3)CC2)c1 [PCM-0215867]"
quantity_kind = "inhibition at 10 µM"
readout_number = -17

[[record]]
compound = "O=c1cc[nH]c(=S)[nH]1 [PCM-0090803]"
quantity_kind = "inhibition at 10 µM"
readout_number = 8.6

[[record]]
compound = "OC[C@@H](O)[C@@H](O)[C@@H](O)[C@@H](O)CO [PCM-0216285]"
quantity_kind = "inhibition at 10 µM"
readout_number = -17

